Tested on: Bacillus subtilis
Assay: Antimicrobial activity against Bacillus subtilis ATCC 6633
Type: functional
ATTRIBUTE_MEASURED: MIC (µg/mL)

[
  {
    "COMPOUND": "Cc1[nH]c2ccccc2c1C(=O)C(=O)O",
    "UNIT_SYMBOL": "µg/mL",
    "VALUE_QUALIFIER": ">",
    "OBS_VALUE": 200
  },
  {
    "COMPOUND": "Oc1ccc2[nH]c3c(c2c1)CCNC3c1ccccc1 (configuration not stated)",
    "UNIT_SYMBOL": "µg/mL",
    "VALUE_QUALIFIER": "=",
    "OBS_VALUE": 100
  },
  {
    "COMPOUND": "c1ccc2cc(C3NCCc4c3[nH]c3ccccc43)ccc2c1 (configuration not stated)",
    "UNIT_SYMBOL": "µg/mL",
    "VALUE_QUALIFIER": "=",
    "OBS_VALUE": 6.25
  },
  {
    "COMPOUND": "COc1ccc(C2NCCc3c2[nH]c2ccccc32)cc1 (configuration not stated)",
    "UNIT_SYMBOL": "µg/mL",
    "VALUE_QUALIFIER": "=",
    "OBS_VALUE": 6.25
  },
  {
    "COMPOUND": "Cc1[nH]c2ccccc2c1C(=O)C(=O)Nc1ccccc1",
    "UNIT_SYMBOL": "µg/mL",
    "VALUE_QUALIFIER": ">",
    "OBS_VALUE": 200
  },
  {
    "COMPOUND": "COc1ccc2[nH]c3c(c2c1)CCN=C3c1ccccc1",
    "UNIT_SYMBOL": "µg/mL",
    "VALUE_QUALIFIER": ">",
    "OBS_VALUE": 200
  },
  {
    "COMPOUND": "CC1(C)S[C@@H]2[C@H](NC(=O)[C@H](N)c3ccccc3)C(=O)N2[C@H]1C(=O)O [AMPICILLIN]",
    "UNIT_SYMBOL": "µg/mL",
    "VALUE_QUALIFIER": "=",
    "OBS_VALUE": 0.78
  },
  {
    "COMPOUND": "O=C(Nc1ccccc1)C(=O)c1c[nH]c2ccccc12",
    "UNIT_SYMBOL": "µg/mL",
    "VALUE_QUALIFIER": ">",
    "OBS_VALUE": 200
  },
  {
    "COMPOUND": "c1ccc(C2=NCCc3c2[nH]c2ccccc32)cc1",
    "UNIT_SYMBOL": "µg/mL",
    "VALUE_QUALIFIER": ">",
    "OBS_VALUE": 200
  },
  {
    "COMPOUND": "COc1ccc2[nH]c3c(c2c1)CCNC3c1ccccc1 (configuration not stated)",
    "UNIT_SYMBOL": "µg/mL",
    "VALUE_QUALIFIER": ">",
    "OBS_VALUE": 200
  },
  {
    "COMPOUND": "O=C(O)C(=O)c1c[nH]c2ccccc12",
    "UNIT_SYMBOL": "µg/mL",
    "VALUE_QUALIFIER": ">",
    "OBS_VALUE": 200
  },
  {
    "COMPOUND": "COc1cccc(C2NCCc3c2[nH]c2ccccc32)c1 (configuration not stated)",
    "UNIT_SYMBOL": "µg/mL",
    "VALUE_QUALIFIER": "=",
    "OBS_VALUE": 12.5
  }
]
